Tested on: G-protein
Assay: functional [35S]GTPγS binding, guinea pig brain membrane homogenates
Format: biochemical
Settings: ligand alone
Where a SMILES comes first, the peptide text is derived from it. [ ]: non-standard residue; d: D form. Kyn = Nc1ccccc1C(=O)C[C@H](N)C(=O)O
endpointLabel: Emax + S.E.M., Ligand (%)
Enter your answer as a number in %; do not include the unit.

Completed entries (count: 3):
{"compound": "NC(=O)[C@H](Cc1ccccc1)NC(=O)[C@H](CC(=O)c1ccccc1N)NC(=O)[C@@H]1CCCN1C(=O)[C@@H](N)Cc1ccc(O)cc1 [Peptide K2]", "targetOrTestSystem": "G-protein", "Emax + S.E.M., Ligand [%]": 92.8}
{"compound": "COC(=O)[C@H](CC(=O)c1ccccc1N)NC(=O)[C@H](Cc1ccccc1)NC(=O)CNC(=O)[C@@H](C)NC(=O)[C@@H](N)Cc1ccc(O)cc1 [Peptide K4] (H-Y[dA]GF[Kyn]-OMe)", "targetOrTestSystem": "G-protein", "Emax + S.E.M., Ligand [%]": 125.2}
{"compound": "NC(=O)[C@H](CC(=O)c1ccccc1N)NC(=O)[C@H](Cc1ccccc1)NC(=O)[C@@H]1CCCN1C(=O)[C@@H](N)Cc1ccc(O)cc1 [Peptide K3] (H-YPF[Kyn]-NH2)", "targetOrTestSystem": "G-protein", "Emax + S.E.M., Ligand [%]": 95.2}

API: the following record is the query input.
Q: API: value(readout= Emax + S.E.M., Ligand, system= G-protein, query= C[C@@H](NC(=O)[C@@H](N)Cc1ccc(O)cc1)C(=O)NCC(=O)N[C@@H](Cc1ccccc1)C(=O)N[C@@H](CC(=O)c1ccccc1N)C(N)=O [Peptide K6] (H-Y[dA]GF[Kyn]-NH2) )
A: 139.8
